- assayed.target: P. falciparum apicoplast DNA polymerase (Pf-apPOL) (Plasmodium falciparum, UniProt Q8ILY1)
- Sequence (Q8ILY1 entry or part of it): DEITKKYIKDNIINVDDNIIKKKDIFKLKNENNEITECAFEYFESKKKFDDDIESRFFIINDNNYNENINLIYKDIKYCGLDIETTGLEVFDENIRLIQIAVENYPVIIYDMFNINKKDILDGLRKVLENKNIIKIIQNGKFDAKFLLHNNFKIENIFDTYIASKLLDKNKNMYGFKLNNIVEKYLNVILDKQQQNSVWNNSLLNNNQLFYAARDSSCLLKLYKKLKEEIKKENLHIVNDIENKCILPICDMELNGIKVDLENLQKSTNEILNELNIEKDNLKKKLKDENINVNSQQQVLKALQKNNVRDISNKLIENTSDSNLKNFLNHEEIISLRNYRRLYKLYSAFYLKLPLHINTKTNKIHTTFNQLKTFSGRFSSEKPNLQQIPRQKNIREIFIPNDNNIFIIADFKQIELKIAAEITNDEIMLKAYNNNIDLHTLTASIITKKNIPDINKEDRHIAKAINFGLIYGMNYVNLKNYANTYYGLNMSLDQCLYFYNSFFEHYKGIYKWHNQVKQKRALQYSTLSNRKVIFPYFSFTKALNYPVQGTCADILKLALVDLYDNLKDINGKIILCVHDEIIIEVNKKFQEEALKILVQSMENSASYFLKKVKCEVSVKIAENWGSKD
- test.method.notes: Fluorescence-based high-throughput DNA polymerase assay (molecular beacon), primary screen and dose-response;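 also: test concentration in µM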
- Format: biochemical
- protocol.conditions: DRC-2; 180'; concentration 2.5
% inhibition apPOL 180' values for the compounds below.
Numbers only here, please. The scale is %.

| compound | measurement.kind | result.number |
| --- | --- | --- |
| O=C(Cn1ccc2c(=O)[nH]ccc21)Nc1cccc(Cl)c1 [Molecule 23, O=C(Cn1ccc2c1cc[nH]c2=O)Nc1cccc(c1)Cl] | % inhibition apPOL 180' | -5 |
| Cc1ccc(C(=O)/C=C/C=C/C=C/N(C)C)o1 [Molecule 96, CN(/C=C/C=C/C=C/C(=O)c1ccc(o1)C)C] | % inhibition apPOL 180' | -4.64 |
| COc1ccc(-c2cc(=O)c3cc(O)ccc3o2)cc1OC [KU0193655] | % inhibition apPOL 180' | -1.88 |
| CC(=O)c1cc2c(N)c(/C(N)=N/C#N)sc2nc1C [KU0015866] | % inhibition apPOL 180' | -4.65 |
| O=C(Cn1ccc2c(=O)[nH]ccc21)Nc1cc(F)ccc1F [Molecule 42, O=C(Cn1ccc2c1cc[nH]c2=O)Nc1cc(F)ccc1F] | % inhibition apPOL 180' | -5 |

Can you look up the measured % inhibition apPOL 180' of Cc1ccc(NC(=O)Cn2ccc3c(=O)[nH]ccc32)cc1F [Molecule 48, O=C(Cn1ccc2c1cc[nH]c2=O)Nc1ccc(c(c1)F)C] for me? -10

Now give it for O=C(NCC1CCN(C2CCCC2)CC1)C(=O)NC1CCCC1 [KU0199596] too. -0.788

Now give it for CN(C)C1C(c2ccccc2)=C(c2ccccc2)SC(c2ccccc2)C1[N+](=O)[O-] (stereo not shown) [KU0268387] too. -3.51

Now give it for O=C(Nc1ccc2c(c1)Cc1cc(NC(=O)c3ccco3)ccc1-2)c1ccco1 [KU0038977] too. 20

Now give it for O=C(CSc1nc2ccccc2s1)Nc1ncc([N+](=O)[O-])s1 [KU0019667] too. -13
